ASSAY_COMMENT: qHTS drug screen for cell cycle checkpoint inhibitors in PARPi-resistant BRCA-mutant ovarian cancer cell lines. (AID 1963452)
STUDY_CONDITIONS: PEO1/OlaR viability, CellTiter-Glo luminescence, 96 h; measured here: PEO1 parental Z-AUC; stronger effect = lower value
Excerpt: Women's Malignancies Branch, Center for Cancer Research (CCR), National Cancer Institute (NCI), National Institutes of Health (NIH), Bethesda, MD Poly (ADP-ribose) polymerase inhibitors (PARPis) have changed the treatment paradigm in breast cancer gene (BRCA) - mutant high-grade serous ovarian carcinoma (HGSC). […] 6; Detection; Luminescence, PHERAstar (BMG Labtech) plate reader. […] 6. Luminescence readings were taken using PHERAstar (BMG Labtech). […]
hey, just use true if measured Z-AUC is less than 0.5, otherwise false

Solved entries:
O=NN(CCCl)C(=O)NCCCl ... false
CN1CCN(CCCN2c3ccccc3Sc3ccc(C(F)(F)F)cc32)CC1 ... true
CCCCNc1cc(C(=O)O)cc(S(N)(=O)=O)c1Oc1ccccc1 ... false
CC1(C)CNc2cc(NC(=O)c3cccnc3NCc3ccncc3)ccc21 ... true
CNC[C@H](O)c1cccc(O)c1 ... false

Inquiry: Consider the compound O=c1[nH]c(-c2ccc(C(F)(F)F)cc2)nc2c1CSCC2 . Is its Z-AUC strictly less than 0.5?
Reply text: true

Inquiry: Also need NNCCc1ccccc1 , thanks.
Reply text: true

Inquiry: Next record, please: NCCCC(N)(C(=O)O)C(F)F (configuration not stated)
Reply text: true

Inquiry: Same question for Cc1ccc(NC(=O)c2cccc(C(C)(C)C#N)c2)cc1Nc1ccc2ncn(C)c(=O)c2c1 please.
Reply text: true

* * *

ASSAY_COMMENT: qHTS of pediatric cancer cell lines to identify multiple opportunities for drug repurposing: Primary screen for NB1643 cells (AID 1347099); note: nearly all actives have a fitted effect of over 50% in size
STUDY_CONDITIONS: NB1643 neuroblastoma viability, CellTiter-Glo luminescence, 48 h; series mostly up to 46 µM
Results filed as inconclusive are left out. Activity calls are given as the source filed them. Calls come from the whole dose curve; as a rule, active = well fitted cell-killing curve with a large enough effect; inconclusive = small, poorly fitted or top-dose-only effect; inactive = no such curve, though single readings can be large or run the other way.
Bench note: report the call from t = active, f = inactive

COc1ccc2c3n(c(=NC(=O)c4cccnc4)nc2c1OC)CCN3 ... t
CCCS(=O)(=O)Nc1ccc(F)c(C(=O)c2c[nH]c3ncc(-c4ccc(Cl)cc4)cc23)c1F ... t
COc1ccccc1-c1cccc(-c2c(O)c3cc(C#N)c(Cl)cc3[nH]c2=O)c1 ... f
CCC(=O)N[C@H]1CC[C@H](C(=O)N(C)c2ccc(-c3nc4ccccc4o3)cc2)C1 ... t
Cn1cc(-c2ccc3nnc(C(F)(F)c4ccc5ncccc5c4)n3n2)cn1 ... f

Inquiry: So what was the verdict on Cc1n[nH]c(C)c1Cc1sc2c(c1C(=O)N1C[C@H](O)CO1)c(=O)n(C)c(=O)n2CC(C)C in this test?
Reply text: t

Inquiry: Now give it for O=C(c1cc(Cc2n[nH]c(=O)c3ccccc23)ccc1F)N1CCN(C(=O)C2CC2)CC1 too.
Reply text: t

Inquiry: Moving on to the next molecule: CC[C@H](Nc1ncnc2nc[nH]c12)c1nc2cccc(F)c2c(=O)n1-c1ccccc1
Reply text: t

Inquiry: Proceed to NC(=O)c1cnccn1
Reply text: f

Inquiry: One more molecule: Cc1ccc(N(CC2=NCCN2)c2cccc(O)c2)cc1
Reply text: f
